Let's look at some compounds and their measured TGI.
# System: HCC-2998 colon
# assayProtocol: NCI tumour cell line growth inhibition, 48 h
measure: TGI

INSERT INTO results (compound, measure, measured) VALUES
  ('CCOC(=O)c1c(C)c(C)n2c1NC(=O)C2', 'TGI', '> 100 µM'),
  ('CCN(CC)CCSCCCNc1c2ccc(Cl)cc2nc2ccc(OC)cc12', 'TGI', '2.42 µM'),
  ('Cc1cc(OCc2nnc3n2N=C(c2ccc(Cl)cc2Cl)CS3)ccc1Cl', 'TGI', '> 100 µM'),
  ('COc1ccc2c(c1OC)C(=O)c1cnccc1C2=O', 'TGI', '> 100 µM'),
  ('CC(=O)OCC(Br)C1(C)CCC(C(C)(C)Br)O1 (stereo not given)', 'TGI', '> 100 µM'),
  ('CCN(CC)CCN(C(=O)c1ccc(F)cc1)c1ccccc1N', 'TGI', '> 10 µM'),
  ('CCOC(=O)c1c(N2CCCC2)[nH]c(=O)c(C(c2cccs2)c2c(O)c(C(=O)OCC)c(N3CCCC3)[nH]c2=O)c1O', 'TGI', '> 100 µM'),
  ('COc1ccc(CCc2nccn2C)cc1OC', 'TGI', '> 100 µM'),
  ('CC1OC(OC2C(Oc3cc(O)c4c(c3)O[C@H](c3ccc(O)cc3)CC4=O)OC(CO)C(O)C2O)C(O)C(O)C1O (stereo not given in full)', 'TGI', '> 100 µM'),
  ('C[C@]12CC[C@H](O)CC1=CC[C@@H]1C2CC[C@]2(C)Nc3c(cnn3-c3ccc(F)cc3)CC12 (stereo not given in full)', 'TGI', '> 100 µM');

###

# Tested on: DU-145 prostate
# assayProtocol: NCI tumour cell line growth inhibition, 48 h
measure: TGI

INSERT INTO measurements (compound, targetentity, measured) VALUES
  ('Cc1cc(OCc2nnc3n2N=C(c2ccc(Cl)cc2Cl)CS3)ccc1Cl', 'DU-145 prostate', '> 100 µM'),
  ('N#CC(C#N)=Cn1c(=S)[nH]c2ccccc21', 'DU-145 prostate', '> 100 µM'),
  ('COc1cc(C(=O)Oc2c(C#N)sc3c2c(=O)n(-c2ccccc2)c(=S)n3-c2ccccc2)cc(OC)c1OC', 'DU-145 prostate', '42.3 µM'),
  ('O=c1[nH]n(Cc2ccccc2Cl)c2ccccc12', 'DU-145 prostate', '> 100 µM'),
  ('COc1ccc(C2=CC(c3ccc(OC)c(OC)c3)c3c(c4ccccc4oc3=O)O2)cc1OC (stereo not given)', 'DU-145 prostate', '> 30.7 µM'),
  ('COc1cc2c3c(n(CCCN=[N+]=[N-])c(=O)c2cc1OC)-c1ccc(N(C)C)cc1C3=O', 'DU-145 prostate', '> 100 µM'),
  ('O=C(Nc1ccc(Cl)c(Cl)c1)OCCN1c2ccccc2Sc2ccccc21', 'DU-145 prostate', '> 10 µM'),
  ('CCc1n[nH]c(=O)n1CCO', 'DU-145 prostate', '> 100 µM'),
  ('CCN(CC)CCOc1ccc(C(=O)/C=C\c2ccc(Cl)cc2Cl)cc1', 'DU-145 prostate', '22 µM'),
  ('Cc1c(C)c(S(=O)(=O)N(CCCCCON)OCCCN)c(C)c2c1OC(C)(C)CC2', 'DU-145 prostate', '17.5 µM'),
  ('CC1=C(C(=O)OC(C)C)C(c2ccccc2C(F)(F)F)C(C(=O)OC(CO[N+](=O)[O-])CO[N+](=O)[O-])=C(C)N1 (stereo not given)', 'DU-145 prostate', '> 100 µM'),
  ('COc1ccc(CCNCCCC2c3ccccc3-c3ccccc32)cc1OC', 'DU-145 prostate', '28.9 µM'),
  ('CC(C)C(NCc1c(O)ccc2c(-c3ccccc3)cc(=O)oc12)C(=O)O (stereo not given)', 'DU-145 prostate', '> 100 µM'),
  ('S=C1N=C(Cl)/C(=C\c2ccccc2)N1', 'DU-145 prostate', '> 100 µM'),
  ('NC(=O)c1cccc([C@@H]2O[C@H](CO)[C@@H](O)[C@H]2O)c1', 'DU-145 prostate', '> 50.6 µM'),
  ('N#CCCN(CCN(CCC#N)C(=O)Nc1ccccc1)C(=O)Nc1ccccc1', 'DU-145 prostate', '> 100 µM'),
  ('O=[N+]([O-])c1ccc(S(=O)(=O)Cc2ccccc2)c2nonc12', 'DU-145 prostate', '36.3 µM'),
  ('C[C@]12CC[C@H](O)CC1=CC[C@@H]1C2CC[C@]2(C)Nc3c(cnn3-c3ccc(F)cc3)CC12 (stereo not given in full)', 'DU-145 prostate', '> 100 µM'),
  ('Cc1ccc(S(=O)(=O)NNC2Oc3cc4c(cc3C(c3ccccc3O)C2C)OCO4)cc1 (stereo not given)', 'DU-145 prostate', '29.2 µM'),
  ('Oc1ccc(Cl)cc1CNc1nc2ccccc2[nH]1', 'DU-145 prostate', '32.4 µM'),
  ('CC(=O)OCC(Br)C1(C)CCC(C(C)(C)Br)O1 (stereo not given)', 'DU-145 prostate', '> 100 µM'),
  ('FC1=C2CCCCCC2SC1(F)F (stereo not given)', 'DU-145 prostate', '> 100 µM'),
  ('CCOC(=O)c1c(N2CCCC2)[nH]c(=O)c(C(c2cccs2)c2c(O)c(C(=O)OCC)c(N3CCCC3)[nH]c2=O)c1O', 'DU-145 prostate', '> 100 µM'),
  ('CCCCCC(O)C1C(=O)OC(C)C(O)/C=C/C=C/C=C/C=C/C=C(\C)C(O)C(O)C(O)CC(O)CC(O)CC(O)CC(O)CC1O (stereo not given)', 'DU-145 prostate', '> 100 µM'),
  ('O=C1CC(c2ccc(Cl)cc2)Oc2ccccc21 (stereo not given)', 'DU-145 prostate', '> 100 µM'),
  ('COc1cc(C(=O)Nc2cc(C(N)=O)cc(OC)c2OC)cc(NC(=O)/C=C/c2ccccc2)c1OC', 'DU-145 prostate', '> 100 µM'),
  ('Cc1cccc2c(N)c3ccccc3nc12', 'DU-145 prostate', '12.3 µM'),
  ('O=C1OC(CN2CCOCC2)CN1/N=C/c1ccc([N+](=O)[O-])o1 (stereo not given)', 'DU-145 prostate', '> 100 µM'),
  ('Cc1cc2c(cc1Cl)SC(NNc1ccc([N+](=O)[O-])cc1)=NS2(=O)=O', 'DU-145 prostate', '> 10 µM'),
  ('C=CCN1CN(c2ccccc2)C2(CCN(CCCC3(c4ccc(F)cc4)OCCO3)CC2)C1=O', 'DU-145 prostate', '61.1 µM'),
  ('O=C1Oc2cc3c(c4cccc1c24)O[C@H](c1ccccc1)[C@@H](c1ccccc1)[C@@H]3c1ccc(Cl)cc1', 'DU-145 prostate', '> 100 µM'),
  ('C=CCn1c(-c2ccc(-c3cs/c(=N\N=O)n3CC=C)cc2)cs/c1=N\N=O', 'DU-145 prostate', '> 100 µM'),
  ('CCn1c2ccccc2c2cc(C(O)c3cccc4ncccc34)ccc21 (stereo not given)', 'DU-145 prostate', '4.78 µM'),
  ('O=c1[nH]c2c(c(=O)[nH]1)SSC2', 'DU-145 prostate', '28.9 µM'),
  ('NCCSCCc1ccccc1', 'DU-145 prostate', '> 100 µM'),
  ('CNCCC=C1c2ccccc2CCc2ccccc21', 'DU-145 prostate', '28.8 µM'),
  ('N#Cc1nc(COCCOCc2ccc(F)cc2)oc1N', 'DU-145 prostate', '> 100 µM'),
  ('CC[C@@H]1/C=C/C=C/C[C@H](C)[C@@H](O)[C@](C)(O)C(=O)[C@H](C)[C@@H](O)[C@H](C)C(=O)[C@H](C)[C@@H](O)[C@H](C)/C=C/C(=O)O[C@H]2[C@@H](C)[C@@H](CC1)O[C@@]1(CC[C@@H](C)[C@@H](CC(C)O)O1)[C@@H]2C (stereo not given in full)', 'DU-145 prostate', '6.76 µM'),
  ('COC(=O)[C@@H](C)C[C@H](Cc1ccccc1)NC(=O)c1csc([C@@H](C[C@H](C(C)C)N(C)C(=O)[C@H](C)NC(=O)[C@H]2CCCCN2C)OC(C)=O)n1', 'DU-145 prostate', '> 25 µM'),
  ('Cc1ccc(S(=O)(=O)NCCCSCCSCCCN)cc1', 'DU-145 prostate', '> 100 µM');

Data provenance is PubChem BioAssay (NCI).
